Target: T1, Recombinant human PSGL-1(ECD)-hFc1 (R&D Systems, Cat. 3345-PS) (human, UniProt Q14242 42-305)
T1 construct: Bought; Gln42-Val295 counted on AAC50061; also called PSGL-1-Fc; PSGL-1-hFc1 chimera; not shown: human IgG1 Fc, Pro100-Lys330
T1 sequence: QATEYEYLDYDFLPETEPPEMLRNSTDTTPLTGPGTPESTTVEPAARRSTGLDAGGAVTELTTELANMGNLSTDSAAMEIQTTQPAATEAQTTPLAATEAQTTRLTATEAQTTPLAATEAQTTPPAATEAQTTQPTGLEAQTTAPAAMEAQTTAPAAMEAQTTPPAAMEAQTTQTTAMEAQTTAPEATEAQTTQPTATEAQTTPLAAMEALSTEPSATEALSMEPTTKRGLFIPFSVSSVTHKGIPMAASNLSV
Test: ELISA, plate-bound target
Measured property: EC50
Give the number first and the unit second.

9F9 (antibody, V domains shown, Control anti-PSGL-1 mAb, recombinant; only variable domains given; also called 9F6) VH: EVQLVETGGGLVQPKGSLKLSCAASGFTFNTNAMNWVRQAPGKGLEWVARIRSKSNNYATYYADSVKDRFTISRDDTQSMIYLQMNNLKTEDTGMYYCVRGGSYWYFDVWGAGTTVTVSS VL: DVLMTQTPLSLPVSLGDQASISCRSSQSIVNSNGNTYLEWYLQKPGQSPKLLIYKVSNRFSGVPDRFSGSGSGTDFTLKISRVEAEDLGVYYCFQGSHVPWTFGGGTKLEIK :: 60 pM

Okay, now this binder:
q: Requested field: EC50. Item: 19I01 (antibody, V domains shown, From mouse immunisation; only variable domains given; also called 19101) VH: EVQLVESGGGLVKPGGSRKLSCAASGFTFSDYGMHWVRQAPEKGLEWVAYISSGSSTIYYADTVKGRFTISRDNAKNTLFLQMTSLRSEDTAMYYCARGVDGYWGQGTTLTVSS VL: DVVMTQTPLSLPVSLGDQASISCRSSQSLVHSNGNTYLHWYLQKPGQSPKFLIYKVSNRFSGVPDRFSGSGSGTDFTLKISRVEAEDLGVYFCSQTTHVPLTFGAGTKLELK
a: 1230 pM
